Hello, the source for this data is ChEMBL document CHEMBL5291721, in case you need it.

List of AC50 tested on Alpha-2B adrenergic receptor (Homo sapiens, UniProt P18089). Also: assay procedure not described here.
Sequence (P18089 whole entry): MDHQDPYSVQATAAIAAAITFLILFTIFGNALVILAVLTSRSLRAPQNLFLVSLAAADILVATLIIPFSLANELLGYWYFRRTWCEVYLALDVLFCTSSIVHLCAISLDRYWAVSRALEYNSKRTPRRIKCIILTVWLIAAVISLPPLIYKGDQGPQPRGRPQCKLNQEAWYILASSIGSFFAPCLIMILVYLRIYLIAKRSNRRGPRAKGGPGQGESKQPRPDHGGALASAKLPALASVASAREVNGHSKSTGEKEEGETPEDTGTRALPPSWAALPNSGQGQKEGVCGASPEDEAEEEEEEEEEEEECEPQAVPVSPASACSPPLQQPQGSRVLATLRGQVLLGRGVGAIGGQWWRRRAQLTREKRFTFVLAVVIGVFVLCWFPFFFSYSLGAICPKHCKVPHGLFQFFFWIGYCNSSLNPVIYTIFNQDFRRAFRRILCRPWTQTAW

Compound	Measured Metric	Endpoint Result
CCC(COC(=O)c1cc(OC)c(OC)c(OC)c1)(c1ccccc1)N(C)C (stereo not drawn) [TRIMEBUTINE]	AC50	17 µM
COc1ccc(CC2c3cc(OC)c(OC)cc3CC[N+]2(C)CCC(=O)OCCCCCOC(=O)CC[N+]2(C)CCc3cc(OC)c(OC)cc3C2Cc2ccc(OC)c(OC)c2)cc1OC (stereo not drawn)	AC50	> 30 µM

Now for the compound whose AC50 we want.
## Task Answer with AC50 of CC(=O)[C@@]1(O)CC[C@H]2[C@@H]3C=C(Cl)C4=CC(=O)[C@@H]5C[C@@H]5[C@]4(C)[C@H]3CC[C@@]21C [CYPROTERONE] measured for Alpha-2B adrenergic receptor (Homo sapiens, UniProt P18089).
## Result > 10 µM
